# Assayed system: hRIPK1 (aa 1-375) fusion protein (Homo sapiens, UniProt Q13546)
# Construct: hRIPK1 (aa 1-375) fusion protein
# Sequence (Q13546 1-375): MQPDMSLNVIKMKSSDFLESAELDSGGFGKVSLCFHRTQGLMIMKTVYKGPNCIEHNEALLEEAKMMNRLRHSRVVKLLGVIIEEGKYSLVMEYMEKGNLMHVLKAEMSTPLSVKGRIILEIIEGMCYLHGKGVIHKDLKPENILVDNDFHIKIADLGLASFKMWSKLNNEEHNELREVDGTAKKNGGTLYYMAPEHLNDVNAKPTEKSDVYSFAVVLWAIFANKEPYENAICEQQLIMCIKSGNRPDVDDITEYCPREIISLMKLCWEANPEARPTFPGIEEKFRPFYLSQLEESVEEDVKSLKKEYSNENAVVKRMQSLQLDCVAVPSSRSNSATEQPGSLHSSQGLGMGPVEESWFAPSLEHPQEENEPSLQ
# Experiment summary: ADP-Glo kinase assay: catalytic activity of RIPK1 (autophosphorylation, conversion of ATP to ADP)
Would you kindly list pIC50 for each of these molecules?
Numbers only, as −log10 of the molar value.

# Entry smiles, Assayed system, pIC50
measured = [
    ("N#Cc1ccc2c(cnn2C[C@H]2CC[C@H](C(=O)N3OCC[C@H]3c3cnccn3)CC2)c1", "hRIPK1 (aa 1-375) fusion protein (Homo sapiens, UniProt Q13546)", 7.70),
    ("Cc1ccc([C@@H]2CCON2C(=O)C23CCC(Cc4ccc(C)c(C(N)=O)c4)(CC2)CC3)cn1", "hRIPK1 (aa 1-375) fusion protein (Homo sapiens, UniProt Q13546)", 7.54),
    ("COc1cncc([C@@H]2CCON2C(=O)[C@H]2CC[C@H](Cn3ccc4ncc(C#N)cc43)CC2)n1", "hRIPK1 (aa 1-375) fusion protein (Homo sapiens, UniProt Q13546)", 7.49),
]

# per-item lookup of pIC50; items listed below
1. NC(=O)c1cc2c(cc1F)ncn2C[C@H]1CC[C@H](C(=O)N2OCC[C@H]2c2cc(F)cc(F)c2)CC1
2. N#Cc1cnc2ccn(C[C@H]3CC[C@H](C(=O)N4OCC[C@H]4c4cc(F)cc(F)c4)CC3)c2c1
3. N#Cc1cc(F)cc([C@@H]2CCON2C(=O)[C@H]2CC[C@H](Cn3ccc4ccc(C(N)=O)cc43)CC2)c1
4. N#Cc1cncc([C@@H]2CCON2C(=O)[C@H]2CC[C@H](Cn3ccc4cc(C(N)=O)ccc43)CC2)c1
5. N#Cc1cc(F)cc([C@@H]2CCON2C(=O)[C@H]2CC[C@H](Cn3ccc4nc(C#N)ccc43)CC2)c1
6. Cc1ncn(C[C@H]2CC[C@H](C(=O)N3OCC[C@H]3c3cc(F)cc(C#N)c3)CC2)c1C#N
7. O=C([C@H]1CC[C@H](Cc2ccc(C3(O)COC3)cc2)CC1)N1OCC[C@H]1c1ccc(F)cc1
8. N#Cc1cc2ncn(C[C@H]3CC[C@H](C(=O)N4OCC[C@H]4c4cc(F)cc(F)c4)CC3)c2cc1F

1: 7.43; 2: 7.68; 3: 7.74; 4: 7.77; 5: 7.43; 6: 7.28; 7: 7.68; 8: 7.37
